Below, each entry is listed with its recorded pIC50.
- Study Target: human PAC1 (Homo sapiens, UniProt P41586)
- Sequence (P41586 21-468): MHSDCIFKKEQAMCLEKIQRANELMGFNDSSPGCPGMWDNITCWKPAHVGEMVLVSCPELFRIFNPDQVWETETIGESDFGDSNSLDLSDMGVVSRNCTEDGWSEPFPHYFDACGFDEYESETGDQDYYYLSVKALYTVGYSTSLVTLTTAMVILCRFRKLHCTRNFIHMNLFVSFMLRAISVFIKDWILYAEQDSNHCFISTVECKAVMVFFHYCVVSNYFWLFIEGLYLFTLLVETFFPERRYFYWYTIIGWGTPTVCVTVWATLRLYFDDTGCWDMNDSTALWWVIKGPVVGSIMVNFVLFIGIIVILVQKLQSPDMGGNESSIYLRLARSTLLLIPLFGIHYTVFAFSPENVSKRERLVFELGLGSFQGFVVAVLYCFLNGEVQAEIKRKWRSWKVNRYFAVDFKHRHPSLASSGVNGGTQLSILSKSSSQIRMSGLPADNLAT
- Procedure Text: Filter binding assay, membranes of cells transiently transfected with human PAC1, 125I-labeled PACAP-27 tracer (Table 2)
- Parameters: expressed in transfected cells
- Recorded Conditions: read-out: Human PAC1 Receptor Binding
pIC50: −log10 of the molar value. Where no end group is shown, it is not given here. [ ]: non-standard residue; d: D form. The star is where a group is joined. Orn = NCCC[C@H](N)C(=O)O; Hexanoyl = CCCCCC(=O)*; Aib = CC(C)(N)C(=O)O

{"columns": ["Substance", "pIC50"],
 "data": [
  ["Hexanoyl-HSDAVFTDNYTRLRKQVAAKKILQSIKNKRYGGPSSGAPPPS [Agonist P133]", 5.71],
  ["Hexanoyl-HSDAVFTDNYTRLQKQVAAKQYLQSIKNKRYGGPSSGAPPPS [Agonist P253]", "< 4.60"],
  ["Hexanoyl-HSDAVFTDNYTRLFKQVAAKKYLQSIKNKRYGGPSSGAPPPS [Agonist P175]", "< 4.60"],
  ["Hexanoyl-HSDAVFTDNYTRL[Aib]KQVAAVKYLQSIKNKRYGGPSSGAPPPS [Agonist P269]", "< 4.60"],
  ["Hexanoyl-HSDAVFTDNYTRLR[Orn]QVAAKKYLQSIKNKRYGGPSSGAPPPS [Agonist P307]", 6.53],
  ["Hexanoyl-HSDAVFTDNYTRLR[Aib]QLAAK[Aib]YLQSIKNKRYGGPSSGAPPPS [Agonist P284]", "< 4.60"],
  ["Hexanoyl-HSDAVFTDNYTRLRKQVAAKKYAQSIKNKRYGGPSSGAPPPS [Agonist P235]", 5.95],
  ["Hexanoyl-HSDAVFTDNYTRLL[Aib]QVAA[Aib]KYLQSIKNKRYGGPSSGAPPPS [Agonist P317]", "< 4.60"]
]}

---

- Procedure Text: Rat serum stability studies (remaining active peptide by DiscoveRx cAMP on CHO-VPAC2 cells)
- Type: in vitro ADME
Where no end group is shown, it is not given here. [ ]: non-standard residue; d: D form. The star is where a group is joined. Orn = NCCC[C@H](N)C(=O)O; Hexanoyl = CCCCCC(=O)*; Aib = CC(C)(N)C(=O)O
Rat Serum Stability (estimated purity in % after 18 hours) values by entry
Quantity Kind: Rat Serum Stability (estimated purity in % after 18 hours) (%)

{"columns": ["Substance", "Recorded Number"],
 "data": [
  ["Hexanoyl-HSDAVFTDNYTRLRKQVAATKYLQSIKNKRYGGPSSGAPPPS [Agonist P152]", 0.06],
  ["Hexanoyl-HSDAVFTDNYTRLR[Aib]QVAA[Aib]AYLQSIKNKRYGGPSSGAPPPS [Agonist P341]", 12.82],
  ["Hexanoyl-HSDAVFTDNYTRL[Orn][Aib]QVAA[Aib]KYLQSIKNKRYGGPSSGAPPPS [Agonist P319]", 13.53],
  ["Hexanoyl-HSDAVFTDNYTRLR[Orn]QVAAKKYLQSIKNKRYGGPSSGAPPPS [Agonist P307]", 0.32]
]}

---

- Study Target: human VPAC2 (Homo sapiens, UniProt P41587)
- Construct: expressed in transfected cells
- Sequence (P41587 24-438): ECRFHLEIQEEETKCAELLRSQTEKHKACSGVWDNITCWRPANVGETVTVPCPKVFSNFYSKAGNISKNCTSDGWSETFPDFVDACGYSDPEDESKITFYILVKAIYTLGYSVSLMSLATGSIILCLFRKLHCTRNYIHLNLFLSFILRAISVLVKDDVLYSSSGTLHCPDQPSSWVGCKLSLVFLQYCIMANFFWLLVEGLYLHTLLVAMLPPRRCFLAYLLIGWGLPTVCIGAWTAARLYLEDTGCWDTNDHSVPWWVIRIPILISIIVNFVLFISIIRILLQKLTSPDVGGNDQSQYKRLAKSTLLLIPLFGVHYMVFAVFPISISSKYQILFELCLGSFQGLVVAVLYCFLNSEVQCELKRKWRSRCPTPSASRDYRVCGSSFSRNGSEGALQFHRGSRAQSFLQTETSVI
- Procedure Text: Alpha screen cAMP in vitro potency, human VPAC2 receptor
- Assay type: cell-based
- Recorded Conditions: cAMP generation; single result from two analyses performed in a single run; read-out: Human VPAC2 Receptor: Alpha Screen EC50
Where no end group is shown, it is not given here. [ ]: non-standard residue; d: D form. The star is where a group is joined. Hexanoyl = CCCCCC(=O)*; Aib = CC(C)(N)C(=O)O
# reported EC50; entries follow
Quantity Kind: EC50 (nM)

{"columns": ["Substance", "Quantity Kind", "Recorded Number"],
 "data": [
  ["Hexanoyl-HSDAVFTDNYTRLL[Aib]QVAA[Aib]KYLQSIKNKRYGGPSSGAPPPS [Agonist P317]", "EC50", 0.36],
  ["Hexanoyl-HSDAVFTDNYTRLRKQVAAKKYLQSLKNKRYGGPSSGAPPPS [Agonist P107]", "EC50", 0.12],
  ["Hexanoyl-HSDAVFTDNYTRLRKQVAAKKYLQWIKNKRYGGPSSGAPPPS [Agonist P117]", "EC50", 0.2],
  ["Hexanoyl-HSDAVFTDNYTRLR[Aib]QLAA[Aib]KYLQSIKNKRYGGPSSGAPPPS [Agonist P291]", "EC50", 0.36],
  ["Hexanoyl-HSDAVFTDNYTRLR[Aib]QVAAVKYLQSIKNKRYGGPSSGAPPPS [Agonist P262]", "EC50", 0.24],
  ["Hexanoyl-HSDAVFTDNYTRLRKQVAAKKYLQFIKNKRYGGPSSGAPPPS [Agonist P112]", "EC50", 0.16],
  ["Hexanoyl-HSDAVFTDNYTRLRLQVAAKKYLQSIKNKRYGGPSSGAPPPS [Agonist P179]", "EC50", 0.24],
  ["Hexanoyl-HSDAVFTDNYTRLQ[Aib]QVAA[Aib]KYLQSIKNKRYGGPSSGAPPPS [Agonist P302]", "EC50", 0.45],
  ["Hexanoyl-HSDAVFTDNYTRLRKQVAAKKYTQSIKNKRYGGPSSGAPPPS [Agonist P232]", "EC50", 1.94],
  ["Hexanoyl-HSDAVFTDNYTRLR[Aib]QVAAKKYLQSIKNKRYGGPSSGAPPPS [Agonist P168]", "EC50", 0.27],
  ["Hexanoyl-HSDAVFTDNYTRLRKQVAAKKYLQNIKNKRYGGPSSGAPPPS [Agonist P125]", "EC50", 0.14],
  ["Hexanoyl-HSDAVFTDNYTRLLKQVAAKKYLQSIKNKRYGGPSSGAPPPS [Agonist P174]", "EC50", 0.26],
  ["Hexanoyl-HSDAVFTDNYTRLRAQVAAQKYLQSIKNKRYGGPSSGAPPPS [Agonist P138]", "EC50", 0.45],
  ["Hexanoyl-HSDAVFTDNYTRLKKQVAAKKYLQSIKNKRYGGPSSGAPPPS [Agonist P171]", "EC50", 0.82],
  ["Hexanoyl-HSDAVFTDNYTRLRKQVAAKKYLQSIKNKRFGGPSSGAPPPS [Agonist P203]", "EC50", 0.14],
  ["Hexanoyl-HSDAVFTDNYTRLRKQVAAKKYLQSIKNKKGGPSSGAPPPS [Agonist P121]", "EC50", 0.1],
  ["Hexanoyl-HSDAVFTDNYTRLR[Aib]KVAA[Aib]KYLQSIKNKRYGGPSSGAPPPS [Agonist P321]", "EC50", 0.38]
]}
